Data provenance is patent US20220064286A1.

Each entry below carries its reported kon.
target: cynomolgus monkey (cyno) TIGIT protein (cynomolgus monkey, UniProt A0A7N9I9V4 89-209); assay: SPR, captured mAb
Sequence (A0A7N9I9V4 entry or part of it): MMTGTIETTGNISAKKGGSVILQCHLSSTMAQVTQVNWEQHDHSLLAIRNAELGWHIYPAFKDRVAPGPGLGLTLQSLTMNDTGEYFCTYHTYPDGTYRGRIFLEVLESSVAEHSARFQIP
Give just the number in M⁻¹ s⁻¹; leave the unit off.

Consider the worked cases shown below.
So, h15C8.L1H7 (antibody, V domains shown, VH: T71R against h15C8.L1H1; FR/HVR pieces) VH: EVQLVQSGAEVKKPGASVKVSCKASGYTFTEHSIYWLRQAPGQRLEIIGRIDPKNGRTYFVDKFKNRATLTRDTSASTAYMELSSLRSEDTAVYFCARIDGFYFDFWGQGTLVTVSS VL: DIQLTQSPSFLSASVGDRVTITCKGSQNVNKYLVWYQQKPGKAPKLLIYSTDNLQSGIPSRFSGSGSGTEYTLTISSLQPEDFATYFCYQYNNGFTFGQGTKVEIK ? Its kon was 219000

So, h15C8.L4H1 (antibody, V domains shown, VL: F87Y against h15C8.L1H1; FR/HVR pieces) VH: EVQLVQSGAEVKKPGASVKVSCKASGYTFTEHSIYWLRQAPGQRLEIIGRIDPKNGRTYFVDKFKNRATLTTDTSASTAYMELSSLRSEDTAVYFCARIDGFYFDFWGQGTLVTVSS VL: DIQLTQSPSFLSASVGDRVTITCKGSQNVNKYLVWYQQKPGKAPKLLIYSTDNLQSGIPSRFSGSGSGTEYTLTISSLQPEDFATYYCYQYNNGFTFGQGTKVEIK ? Its kon was 485000

Below: the item to evaluate.
So, h7E7.L1H4 (antibody, V domains shown, VH: A67V against h7E7.L1H1; FR/HVR pieces) VH: EVQLVQSGAEVKKPGASVKVSCKASGYTFTEYSIYWVRQAPGQRLEIIGRIDPKNGRTYYVDKFKNRVTLTADTSASTAYMELSSLRSEDTAVYFCTRIYGFYFDFWGQGTLVTVSS VL: DIQLTQSPSFLSASVGDRVTITCKGSQNVNKYLVWYQQKPGKAPKLLIYNTDNLQSGIPSRFSGSGSGTEYTLTISSLQPEDFATYFCYQYNNGFTFGQGTKVEIK ? Its kon was 601000
